- test_summary: NIH3T3 cell viability loss – ATP luminescence, mouse fibroblasts, counter-screen, dose response (AID 2010);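 further: cells exposed to compound for about 90 hours before reading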
- Type: functional, cell-based
A collection of compounds and their measured EC50

Please review the entries below; each comes with its answer.
O=C(N/N=C/c1ccc(-c2ccccc2Cl)o1)c1ccccc1	> 60 µM (not active)
Cc1occc1C(=O)N/N=C/c1ccc(-c2cccc([N+](=O)[O-])c2)o1	> 60 µM (not active)
CCOC(=O)c1cc(-c2ccccc2)sc1NC(=O)CN1C(=O)NC(CC)(c2ccc(F)cc2)C1=O (stereo not given)	> 60 µM (not active)

Request: Form field: reported EC50 of Cc1c(C)n(Cc2ccccc2)c2ccc(C(=O)OCCCN(C)C)cc12
Response: > 30 µM (not active)

Request: O=C(CCc1nc(O)c2ccccc2n1)N1CCN(C/C=C/c2ccccc2)CC1 , same question.
Response: > 30 µM (not active)
